# Tested on: SN12C renal
# ASSAY NAME: NCI tumour cell line growth inhibition, 48 h
Please respond with reported TGI for every item in the list.

**Q:** What measured TGI goes with Nc1cc2c(nc3c4ccccc4c(N)cc3[n+]2-c2cccc3ccccc23)c2ccccc12 (tested in a mixture with another compound) ?
**A:** 13.8 µM

**Q:** What measured TGI goes with COC(=O)[C@@H](C[C@H](Cc1ccccc1)NC(=O)c1csc([C@@H](C[C@H](C(C)C)N(C)C(=O)[C@@H](NC(=O)[C@H]2CCCCN2C)C(C)C)OC(C)=O)n1)NC(=O)OCc1ccccc1 ?
**A:** > 8.33 µM

**Q:** What measured TGI goes with O=C1C=CC(=O)c2ccc(=O)ccc21 ?
**A:** 32.2 µM

**Q:** What measured TGI goes with NC(=O)N/N=C\c1ccccc1OCc1cccc(COc2ccccc2/C=N\NC(N)=O)n1 ?
**A:** > 100 µM

**Q:** What measured TGI goes with CC(=O)NC1C(OCc2ccccc2)OC(CO)C(O)C1OCC(=O)N1CCCC1C(=O)N[C@@H](CCC(=O)NCCNCCNc1c2ccccc2nc2cccc([N+](=O)[O-])c12)C(N)=O (some centres not stated) ?
**A:** 10.6 µM

**Q:** What measured TGI goes with O=C(Nc1ccn(CCOC(=O)c2ccccc2)c(=O)n1)c1ccccc1 ?
**A:** > 100 µM

**Q:** What measured TGI goes with CC1(C)C(OC(=O)c2ccccc2)C[C@]23CCC[C@](C)(C[C@@H](O)C12)C3 (some centres not stated) ?
**A:** 34.6 µM

Source listed as PubChem BioAssay (NCI).
